Where do the numbers come from? From PubChem BioAssay AID1159583.

Kindly supply the reported growth inhibition values for the records listed here.
# test: hypoxia reporter signal reduction in M. tuberculosis – fluorescence, absorbance growth readout, primary screen (AID 1159583)
# run_conditions: M. tuberculosis hypoxia-regulated fluorescent reporter, stronger effect = higher value, concentration not given here; measured here: M. tuberculosis growth (absorbance)
The whole screen tested about 300,000 compounds, of which about 310 (0.1%) were called active. This excerpt belongs to a sample that is enriched for actives.
Enter your answer as a number in %; do not include the unit.

Lab note: measured growth inhibition of C#CCOCCOCCOCCNc1nc(N2CCN(C(=O)C(CCC(=O)O)n3cc(C(N)Cc4ccc(O)cc4)nn3)CC2)nc(N2CCN(C(=O)C(C(C)CC)n3cc(C(N)CO)nn3)CC2)n1 (centres undefined) was 6.78

// CN1C(=O)C(=NOC(=O)c2ccccc2Cl)c2ccccc21 : growth inhibition value = 3.63

GET /value?item= CN1C(=O)/C(=C/C=C2\SCCN2C)OC1=S &field=growth inhibition returns 5.47

Lookup result for O=C1/C(=C\c2cccnc2)CN(Cc2ccccc2)C/C1=C\c1cccnc1 ; measured growth inhibition: 35.7

growth inhibition reading for [O-]C1=N[N+](=Cc2ccc(Cl)cc2)CC1 : 2.77

Query O=C(NN=CC1CC2CCC1C2)C1CC1 (centres undefined) yields growth inhibition of -3.88

Looking up COC(=O)C1C[C@@]2(Br)c3ccccc3N(S(=O)(=O)c3ccccc3)C2N1C(=O)OC (some centres undefined) , I see its growth inhibition listed as -1.54

growth inhibition reading for Cc1ccc(C=NNC(=O)Nc2ccccc2)o1 : 5.33

Notebook: CC(Cc1ccccc1)=NNC(=O)CNC(=O)c1cccc(Br)c1 , growth inhibition read as -2.78

growth inhibition in this record for COC(=O)c1ccc(C=NNC(=O)c2ccc3nc[nH]c3c2)cc1 : -1.77

The compound listed as CC(=O)OCC1OC(CC=NOCC(O)C2OC3OC(C)(C)OC3C2O)C=CC1OC(C)=O (centres undefined) has a reported growth inhibition of 7.61

// Cc1cc(SCC(=O)NN=Cc2ccccc2C(=O)O)c(C)cc1Br : growth inhibition value = -1.84

// recorded growth inhibition for COc1ccc(N(CC(=O)NN=C(C)c2cccs2)S(=O)(=O)c2ccccc2)cc1Cl : -2.78

According to the records, this compound OCC1OC(O)C(O)C1O (centres undefined) displays growth inhibition of -8.94

The compound CC(=NNC(=O)c1cc2ccccc2cc1O)c1ccc2c(c1)OCO2 showed growth inhibition equal to 0.0347

// field: growth inhibition; key: CC(=NNC(=O)OC(C)(C)C)c1ccc(-n2ccnc2)cc1 ; value = 15.9

Input CCCC(=O)O[C@]1(C(=O)CCl)C(C)CC2C3CCC4=CC(=O)C=C[C@]4(C)[C@@]3(F)C(=O)C[C@@]21C (some centres undefined) . Output growth inhibition: 2.62

For O=C1CCCC1=c1sc(=Cc2cccnc2)c(=O)n1-c1ccccc1 the compound record lists growth inhibition as 5.53

Recorded growth inhibition (compound Cn1cc([N+](=O)[O-])c(C(=O)NN=Cc2ccc([N+](=O)[O-])cc2)n1 ): 5.33

Please fill in: growth inhibition reported for Cc1cc(C)nc(N=C(N)C2=C(O)CC(C)(C)CC2=O)n1 = 10.4

Value of growth inhibition reported for the compound Oc1ccccc1C=NNc1cccc2cccnc12 is 5

Please fill in: growth inhibition reported for O=C(CC(=O)NC1CCCCC1)NN=Cc1ccccc1Cl = 1.5

response.value for O=C(Cc1cccs1)NN=C/C=C/c1ccco1 (field: growth inhibition) = 14.2

The recorded growth inhibition for entry COc1ccc(C=NNc2c(Cl)cc(Cl)cc2Cl)cc1CN1CCOCC1 equals 12.6

Recorded growth inhibition (compound CC(CC(=O)Nc1ccc(Cl)cc1Cl)=NNC(=O)C(=O)N1CCCC1 ): 5.91

Recorded growth inhibition (compound CSc1nsc(NN=Cc2ccccc2)c1C#N ): 9.85

response.value for Oc1ccc(C=NNC(=S)Nc2cccnc2)c(O)c1O (field: growth inhibition) = 3.53

Measured growth inhibition of CC(=NNc1nc(C)cc(-c2ccccc2)n1)c1ccc(C)o1 : 13.1

The reported value for CC(C)c1ccc(C=NNC(=O)c2cc(-c3cccc([N+](=O)[O-])c3)n[nH]2)cc1 in terms of growth inhibition is 1.5

Field growth inhibition (entry CSc1ccc(C=NNC(=O)CNc2ccc3ccccc3c2)cc1 ) reads -2.84

Entry under test: COc1ccc(C2CC=C(C(=O)O)C(c3ccccc3F)N2S(=O)(=O)c2ccc(C)cc2)cc1OC (centres undefined) . Its growth inhibition was 4.47

In plain terms, CCCCNC(=O)CN1C(=O)NC(Cc2ccccc2)(Cc2ccccc2)C1=O has a documented growth inhibition of 16.6

Recorded result, Cc1ccccc1C1=N/C(=C/c2cccnc2)C(=O)O1 , growth inhibition: 6.23

Measured growth inhibition of Cc1ccccc1CN1C(Cc2ccccc2)COCCS1(=O)=O (centres undefined) : 4.01

CCOc1cc(C=NNC(=O)CSc2nnc(C)s2)ccc1OCc1ccccc1Cl yielded growth inhibition of -4.08

Record COCc1c(Br)c(C)nc(OCC(=O)NN=Cc2ccc(C)o2)c1C#N , field growth inhibition: 8.53

Record summary for COc1cccc(CNC(=O)CN2C(=O)NC(Cc3ccccc3)(c3ccccc3)C2=O)c1 (centres undefined) : reported growth inhibition = 52.7

The compound listed as Cc1ccc(C=NN(C)S(=O)(=O)c2ccc(C)cc2)cc1 has a reported growth inhibition of -2.51

In plain terms, COc1ccc(C(=O)NN=Cc2ccc(OC(=O)c3cccc4ccccc34)c([N+](=O)[O-])c2)cc1 has a documented growth inhibition of 6.08

Sample CN1CC2C3C(=O)N(C)C(=O)C3[C@](C)(C1=O)N2C(=O)c1ccc(Cl)c(Cl)c1 (some centres undefined) ; growth inhibition observed: 5.39

# growth inhibition of CCOc1cccc(C=NN2C(C)CCCC2C)c1O (centres undefined) = -0.595

// CCCCCC=CC1=CC(=O)CC(c2ccc(Cl)cc2)C1 (centres undefined) : growth inhibition value = 11.6

Form field growth inhibition, entry O=C(NN=Cc1cccc([N+](=O)[O-])c1)c1ccc(CN2CCOCC2)cc1 : 16.6

Looking up COc1ccc2c(Cl)c(C(=O)NN=Cc3c(C)[nH]c4ccccc34)sc2c1 , I see its growth inhibition listed as -1.23
